Origin of values: ChEMBL document CHEMBL1149534

MEASURED_TARGET: C-X-C chemokine receptor type 2 (Homo sapiens, UniProt P25025)
Sequence (P25025 whole entry): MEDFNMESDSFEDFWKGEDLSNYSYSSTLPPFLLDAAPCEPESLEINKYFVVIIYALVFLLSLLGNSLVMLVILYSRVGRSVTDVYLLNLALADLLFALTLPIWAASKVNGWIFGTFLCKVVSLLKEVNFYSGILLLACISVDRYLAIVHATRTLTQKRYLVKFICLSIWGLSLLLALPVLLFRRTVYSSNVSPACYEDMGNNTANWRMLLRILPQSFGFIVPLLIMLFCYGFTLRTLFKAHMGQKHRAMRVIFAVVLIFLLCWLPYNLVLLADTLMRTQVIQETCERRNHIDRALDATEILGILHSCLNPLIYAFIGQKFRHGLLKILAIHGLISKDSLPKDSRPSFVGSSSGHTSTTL
PROTOCOL_DESCRIPTION: Displacement of human recombinant [125I]IL8 from CXCR2 receptor expressed in CHO cells
Format: cell-based
PROPERTY_MEASURED: IC50 (nM)

INSERT INTO results (smiles_entry, property_measured, result) VALUES
  ('O=S1(=O)N=C(Nc2cccc(Br)c2)Nc2c(O)cc(Cl)cc21', 'IC50', 6100);

(I) CC[C@@H](C)NC1=Nc2c(O)cc(Cl)cc2S(=O)(=O)N1
(II) O=S1(=O)NC(Nc2ccccc2-c2ccccc2)=Nc2c(O)cc(Cl)cc21
q: Hi, I'm comparing I with II and wondering which one has the bigger number for IC50. Any idea? Pick one and reply with its label.
a: I
(I: 15000 nM, II: 230 nM)

(I) O=S1(=O)N=C(Nc2ccccc2Oc2ccccc2)Nc2c(O)cc(Cl)cc21
(II) COc1ccccc1NC1=Nc2c(O)cc(Cl)cc2S(=O)(=O)N1
q: Smaller IC50 value, I vs II ? Bench note: the answer is the label of the chosen record.
a: I
(I: 54 nM, II: 250 nM)
